- Tested on: Coxsackievirus B2
- experimental.details: Antiviral activity against Human coxsackievirus B2 Ohio-1 infected in african green monkey Vero cells after 3 days by plaque reduction assay
- Type: functional, organism-based, Coxsackievirus B2 (strain Ohio-1)
- assay.setup: Enterovirus B, Vero, 72 h
pEC50: −log10 of the molar value.
Hi, to clarify the labels: Condition met covers pEC50 from 5 upward, Condition not met covers anything below 5.

• CN1CCN(CC(=O)Nc2ccc(-c3nc4cc(C(F)(F)F)ccc4n3C)cc2)CC1 = Condition not met
• O=[N+]([O-])c1ccc(-c2nc3ccccc3[nH]2)c([N+](=O)[O-])c1 = Condition not met
• O=C(CN1CCCCC1)Nc1ccc(-c2nc3ccccc3[nH]2)cc1 = Condition not met
• COc1ccc(-c2nc3cc([N+](=O)[O-])ccc3[nH]2)c(OC)c1 = Condition not met
• O=C(CN1CCOCC1)Nc1ccc(-c2nc3cc(C(F)(F)F)ccc3[nH]2)cc1 = Condition not met

Asked: Does the compound C[C@@]1(O)[C@H](O)[C@@H](CO)O[C@H]1n1cnc2c(=O)[nH]c(N)nc21 [2'-B-METHYL-GUANOSINE] have recorded pEC50 that is 5 or more?
Given back: Condition not met

Asked: Is pEC50 for `Cn1c(-c2ccc(NC(=O)CN3CCN(c4ccccc4)CC3)cc2)nc2cc(C(F)(F)F)ccc21` at or above 5?
Given back: Condition met

Asked: Test whether the compound `O=C(CN1CCN(c2ccccc2)CC1)Nc1ccc(-c2nc3cc(C(F)(F)F)ccc3[nH]2)cc1` records pEC50 of 5 or higher.
Given back: Condition not met

###

- Test system: Coxsackievirus B2
- experimental.details: Antiviral activity against Human coxsackievirus B2 Ohio-1 infected in african green monkey Vero cells after 3 days by plaque reduction assay
- Type: functional, organism-based, Coxsackievirus B2 (strain Ohio-1)
- assay.setup: Enterovirus B, Vero, 72 h
readout: EC50 (µM)
Give just the numeric value; µM need not be written.

Asked: Which EC50 value is on record for `O=[N+]([O-])c1ccc(-c2nc3cc(C(F)(F)F)ccc3[nH]2)cc1` ?
Given back: 12

Asked: Value lookup for EC50; key = `CCC(=O)Nc1ccc(-c2nc3cc(C(F)(F)F)ccc3[nH]2)cc1`
Given back: 4

Asked: What value of EC50 has been recorded for this entry: `Oc1ccc(-c2nc3cc(C(F)(F)F)ccc3[nH]2)cc1`
Given back: 5

Asked: Would you mind telling me what EC50 value was observed for `CC(=O)Nc1ccc(-c2nc3cc(C(F)(F)F)ccc3n2C2CCCCC2)cc1` ?
Given back: 9

Asked: Item `COc1cc(OC)cc(-c2nc3cc(C(F)(F)F)ccc3[nH]2)c1` has what recorded EC50?
Given back: 3

Asked: Name the reported EC50 value associated with the compound `Fc1ccc(-c2nc3cc(C(F)(F)F)ccc3[nH]2)cc1`
Given back: 13

###

- experimental.details: Cytotoxicity against MDBK cells after 48 to 96 hrs by MTT assay
- Assay type: cell-based, Bos taurus
- assay.setup: cattle, MDBK cells
readout: CC50 (µM)
Give a bare numeral; the unit µM is implied.

Worked cases, answers included:
- O=[N+]([O-])c1ccc(-c2nc3cc(Cl)c(Cl)cc3[nH]2)cc1: 56
- COc1ccc(-c2nc3cc(Cl)c(Cl)cc3[nH]2)c(N)c1: 6.5
- O=C(CN1CCCCC1)Nc1ccc(-c2nc3ccccc3[nH]2)cc1: 18

Asked: Dear colleague, I am looking for the recorded CC50 of the following molecule: `O=C(CN1CCOCC1)Nc1ccc(-c2nc3ccccc3[nH]2)cc1`
Given back: 77

Asked: // lookup CC50 for `O=C(CNC12CC3CC(CC(C3)C1)C2)Nc1ccc(-c2nc3cc(C(F)(F)F)ccc3[nH]2)cc1`
Given back: 23
